- TARGET_DESC: T1, P-cadherin-ECD1-3-Fc protein (human P-cadherin-Fc) (human, UniProt P22223 108-440)
- T1 construct: Construct was expressed with signal peptide and pro-peptide (PACE co-transfected to process the propeptide); not shown: hinge and CH2 and CH3 domains of human IgG1
- TEST_DESCRIPTION: phage scFv ELISA, coated P-cadherin-ECD1-3-Fc
Threshold check on Human P-cadherin-Fc binding (OD450): at or above 2 OD450 gives 1 (yes), strictly below gives 0 (no).

BINDER: anti-P-cadherin scFv 153 alanine-mutant H2.11-Ala (scFv, V domains shown, scFv on phage) VH: EVQLVQSGAEVKKPGASVKVSCKASGYTFTSYGISWVRQAPGQGLEWMGWISAYNGNTNAAQKLQGRVTMTTDTSTSTAYMELRSLRSDDTAVYYCATIDTANAFGIWGQGTMVTVSS VL: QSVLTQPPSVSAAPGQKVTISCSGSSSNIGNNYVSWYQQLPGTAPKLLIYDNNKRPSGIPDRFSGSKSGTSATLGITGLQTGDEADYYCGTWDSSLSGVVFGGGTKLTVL
GROUP_LABEL: 1 (yes)
//
BINDER: anti-P-cadherin scFv 153 alanine-mutant H1.3-Ala (scFv, V domains shown, scFv on phage) VH: EVQLVQSGAEVKKPGASVKVSCKASGYAFTSYGISWVRQAPGQGLEWMGWISAYNGNTNYAQKLQGRVTMTTDTSTSTAYMELRSLRSDDTAVYYCATIDTANAFGIWGQGTMVTVSS VL: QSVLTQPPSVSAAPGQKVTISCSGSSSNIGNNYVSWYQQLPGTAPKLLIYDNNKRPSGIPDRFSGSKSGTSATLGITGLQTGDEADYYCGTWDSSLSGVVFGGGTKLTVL
GROUP_LABEL: 1 (yes)
//
BINDER: anti-P-cadherin scFv 153 alanine-mutant H3.3-Ala (scFv, V domains shown, scFv on phage) VH: EVQLVQSGAEVKKPGASVKVSCKASGYTFTSYGISWVRQAPGQGLEWMGWISAYNGNTNYAQKLQGRVTMTTDTSTSTAYMELRSLRSDDTAVYYCATIDAANAFGIWGQGTMVTVSS VL: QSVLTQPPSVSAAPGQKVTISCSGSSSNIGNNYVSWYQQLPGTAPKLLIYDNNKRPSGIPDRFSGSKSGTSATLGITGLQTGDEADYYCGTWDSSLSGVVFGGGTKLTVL
GROUP_LABEL: 1 (yes)
//
BINDER: anti-P-cadherin scFv 153 alanine-mutant H2.6-Ala (scFv, V domains shown, scFv on phage) VH: EVQLVQSGAEVKKPGASVKVSCKASGYTFTSYGISWVRQAPGQGLEWMGWISAYAGNTNYAQKLQGRVTMTTDTSTSTAYMELRSLRSDDTAVYYCATIDTANAFGIWGQGTMVTVSS VL: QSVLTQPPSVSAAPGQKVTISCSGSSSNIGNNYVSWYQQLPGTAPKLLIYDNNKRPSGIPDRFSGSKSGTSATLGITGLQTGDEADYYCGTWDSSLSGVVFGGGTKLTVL
GROUP_LABEL: 0 (no)
//
BINDER: anti-P-cadherin scFv 153 alanine-mutant H2.15-Ala (scFv, V domains shown, scFv on phage) VH: EVQLVQSGAEVKKPGASVKVSCKASGYTFTSYGISWVRQAPGQGLEWMGWISAYNGNTNYAQKAQGRVTMTTDTSTSTAYMELRSLRSDDTAVYYCATIDTANAFGIWGQGTMVTVSS VL: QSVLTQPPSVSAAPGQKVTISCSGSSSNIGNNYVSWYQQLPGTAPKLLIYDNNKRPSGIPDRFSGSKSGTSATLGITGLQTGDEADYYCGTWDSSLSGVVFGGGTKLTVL
GROUP_LABEL: 0 (no)
